target: PAD3 (Homo sapiens); construct: made in house; test: Inactivation kinetics, PAD3; assay type: biochemical; details: a: single kobs determined
Sequence (Q9ULW8 whole entry): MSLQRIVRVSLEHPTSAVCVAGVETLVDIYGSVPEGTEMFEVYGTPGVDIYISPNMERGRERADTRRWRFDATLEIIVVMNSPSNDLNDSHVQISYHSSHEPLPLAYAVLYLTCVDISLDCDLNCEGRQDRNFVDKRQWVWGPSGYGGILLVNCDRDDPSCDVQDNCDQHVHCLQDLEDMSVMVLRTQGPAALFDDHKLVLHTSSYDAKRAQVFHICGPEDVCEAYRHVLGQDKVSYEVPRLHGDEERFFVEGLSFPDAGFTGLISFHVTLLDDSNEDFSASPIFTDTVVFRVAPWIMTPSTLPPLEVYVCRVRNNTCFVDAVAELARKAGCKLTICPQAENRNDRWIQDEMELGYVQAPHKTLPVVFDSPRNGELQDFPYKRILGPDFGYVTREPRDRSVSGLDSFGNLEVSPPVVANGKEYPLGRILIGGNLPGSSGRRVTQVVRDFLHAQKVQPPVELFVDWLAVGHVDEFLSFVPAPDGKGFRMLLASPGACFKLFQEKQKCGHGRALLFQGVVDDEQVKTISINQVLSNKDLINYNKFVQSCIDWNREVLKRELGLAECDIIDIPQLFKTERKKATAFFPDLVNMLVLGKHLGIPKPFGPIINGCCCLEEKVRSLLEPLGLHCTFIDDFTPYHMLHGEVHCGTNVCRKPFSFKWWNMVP
Given measured kinact/KI, output Satisfied if it is greater than or equal to 90 M⁻¹ s⁻¹ and Not satisfied if not.

Take a look at these entries with their results.
Compound: COc1cccc2c1nc([C@H](CCCNC(=N)CCl)NC(=O)c1cccc3c1C(=O)N(C1CC1)C3)n2C [Compound 8t]
Label: Satisfied

Compound: COc1cccc2c1nc([C@H](CCCNC(=N)CCl)NC(=O)c1ccccc1C(=O)O)n2C [Compound 6j]
Label: Satisfied

Compound: CCN1Cc2cccc(C(=O)N[C@@H](CCCNC(=N)CCl)c3nc4c(OC)cccc4n3CC)c2C1=O [Compound 8v]
Label: Satisfied

Compound: CCN1Cc2cccc(C(=O)N[C@@H](CCCNC(=N)CCl)c3nc4c(OC)cccc4n3C)c2C1=O [Compound 8l]
Label: Satisfied

Compound: Cn1c([C@H](CCCNC(=N)CF)NC(=O)c2ccccc2C(=O)OC(C)(C)C)nc2ccccc21 [Compound 9a]
Label: Not satisfied

We now examine a further compound.
For this compound, is measured kinact/KI 90 M⁻¹ s⁻¹ or higher? Cn1c([C@H](CCCNC(=N)CCl)NC(=O)c2ccccc2C(=O)OC(C)(C)C)nc2ccccc21 [Compound 9b] Not satisfied

----------
Measured Fold PAD3 Selectivity by item
target: PAD3 (Homo sapiens); construct: made in house; experiment: Inactivation kinetics, PAD3; assay type: biochemical; conditions: kinact/KI relative to least inhibited isozyme (1.0)
Write the answer as a number in fold, unit excluded.

Compound: Cn1c([C@H](CCCNC(=N)CF)NC(=O)c2cccc3c2C(=O)NC3)nc2ccccc21
Experimental system: PAD3 (Homo sapiens)
Unit abbrev: fold
Fold PAD3 Selectivity: 1.0

Item `CCN1Cc2cccc(C(=O)N[C@@H](CCCNC(=N)CCl)c3nc4cc(OC)ccc4n3CC)c2C1=O` ; assay system PAD3 (Homo sapiens); Fold PAD3 Selectivity reported as 8.4

Item `COc1ccc2c(c1)nc([C@H](CCCNC(=N)CCl)NC(=O)c1cccc3c1C(=O)NC3)n2C` ; assay system PAD3 (Homo sapiens); Fold PAD3 Selectivity reported as 2.4

Item `CCn1c([C@H](CCCNC(=N)CCl)NC(=O)c2cccc3c2C(=O)NC3)nc2ccccc21` ; assay system PAD3 (Homo sapiens); Fold PAD3 Selectivity reported as 1.8

Item `Cn1c([C@H](CCCNC(=N)CF)NC(=O)c2ccccc2C(=O)O)nc2ccccc21` ; assay system PAD3 (Homo sapiens); Fold PAD3 Selectivity reported as 1.3

----------
Molecular target: PAD3 (Homo sapiens)
Construct: made in house
Test: Inactivation kinetics, PAD3
Format: biochemical
Conditions: kinact/KI relative to least inhibited isozyme (1.0)
Experimental: Inactivation kinetic parameters were determined by incubating PAD1, 2, or 4 (2.0 μM) or PAD3 (5.0 μM) in a pre-warmed (10 min; 37° C.) inactivation mixture (50 mM HEPES, 10 mM CaCl2, and 2 mM DTT, pH 7.6, with a final volume of 60 μL) containing various concentrations of inhibitor. […] After 15 min, reactions were quenched in liquid nitrogen and citrulline production quantified using the COLDER assay. […]
Measured Fold PAD3 Selectivity by item
Write the answer as a number in fold, unit excluded.

Compound: CCN1Cc2cccc(C(=O)N[C@@H](CCCNC(=N)CCl)c3nc4cc(OC)ccc4[nH]3)c2C1=O
Reported measurement: 4.1
//
Compound: C#Cc1ccc(-c2ccc(C(=O)N[C@@H](CCCNC(=N)CCl)c3nc4ccccc4[nH]3)cc2)cc1
Reported measurement: 1.0
//
Compound: N=C(CCl)NCCC[C@H](NC(=O)c1ccc2ccccc2c1)c1nc2ccccc2[nH]1
Reported measurement: 3.5
//
Compound: N=C(CF)NCCC[C@H](NC(=O)c1ccc(-c2ccc(F)cc2)cc1)c1nc2cc(F)c(F)cc2[nH]1
Reported measurement: 1.0

Next molecule, please.
Kindly note the recorded Fold PAD3 Selectivity for `CC(C)n1c([C@H](CCCNC(=N)CF)NC(=O)c2cccc3c2C(=O)NC3)nc2ccccc21` , which is 1.0
